Reference source for all entries: patent US10047105B2

tested on: S. pneumoniae ATCC 51916; assay: MIC, S. pneumoniae; assay type: cell-based; settings: S. pneumoniae
Parameter: log10(MIC Spn52). Scope: all listed entries.
metric.name: log10(MIC Spn52) (log10 of the value in µg/mL)

• CCc1[nH]c2nc(Sc3cnc4nccnc4c3)nc(N(C)Cc3cccnc3)c2c1Cl.O=C(O)C(F)(F)F = 1.20
• CCOc1nc(Nc2cnc3c(c2)nnn3C(C)C)nc2[nH]c(CC)c(Br)c12.O=C(O)C(F)(F)F = 0.60
• CCc1[nH]c2nc(Sc3cnc4nccnc4c3)nc(N3CC4CC3CN4)c2c1Cl.O=C(O)C(F)(F)F (centres unmarked) = 0.30
• CCc1[nH]c2nc(Sc3cnc4c(N)nc(C)nc4c3)nc(N3CC(N)C3)c2c1Cl.O=C(O)C(F)(F)F = 0.00
• CCc1[nH]c2nc(Sc3nc(C(=O)OC)cs3)nc(O)c2c1Br = 0.60
• CCc1[nH]c2nc(Sc3cnc4nccnc4c3)nc(N3CC[C@@H](C)[C@@H](N)C3)c2c1Cl = 0.90
• CCc1[nH]c2nc(Sc3cnc4nccnc4c3)nc(N3CCC4(CCCN4)C3)c2c1Cl (centres unmarked) = 0.60
• CCc1[nH]c2nc(Sc3cncnc3)nc(N3CC4CNC4C3)c2c1Cl (centres unmarked) = 1.81
• CCc1[nH]c2nc(Sc3cc(=O)n(C)c(=O)[nH]3)nc(N3CC4CNC4C3)c2c1Cl.O=C(O)C(F)(F)F (centres unmarked) = 0.90
• CCc1[nH]c2nc(Sc3cc(=O)n(CCC(F)(F)F)c(=O)[nH]3)nc(N3CC(O)C3)c2c1Br = 0.00
• CCc1[nH]c2nc(Sc3cnc4nccnc4c3)nc(N3CC(CNC(=O)C4CCCO4)C3)c2c1Cl (centres unmarked) = 0.30
• CCc1[nH]c2nc(Sc3cnc4[nH]c(C(F)(F)F)nc4c3)nc(N3CC[C@@H](N)C3)c2c1Cl = 1.20
• CCc1[nH]c2nc(Sc3cc(=O)[nH]c(=O)[nH]3)nc(N3CC4CNC4C3)c2c1Cl.O=C(O)C(F)(F)F (centres unmarked) = 1.20
• CCc1[nH]c2nc(Sc3cnc4nccnc4c3)nc(OC3CNC3)c2c1Br = 0.30
• CCc1[nH]c2nc(Sc3ccc[n+]([O-])c3)nc(N3CC(N)C3)c2c1Cl = 1.81
